Test system: M19-MEL melanoma
Assay: NCI tumour cell line growth inhibition, 48 h
MEASURED_ATTRIBUTE: TGI

For orientation, consider the following solved cases.
{"COMPOUND": "CC(C)(C)c1ccc2c(c1)C(O)(c1ccccc1)c1cc(C(C)(C)C)ccc1C2(O)C(F)(F)F (stereo not given)", "TGI": "3.7 µM"}
{"COMPOUND": "COc1cc(/C=C/c2ccc(/C=C/c3cc(OC)c(OC)c(OC)c3)cc2)cc(OC)c1OC", "TGI": "> 100 µM"}

Data point: "C/C(=N\NC(C)(C)C)c1sc(-c2nc(C)c(/C(C)=N/NC(C)(C)C)s2)nc1C" ; TGI = > 100 µM

Data point: CC1(C)COC2(OC1)C1=NS(=O)(=O)CC13CCC2C3(C)C (stereo not given) ; TGI = > 100 µM

Data point: "COC1=CC(=C(C#N)C(=Nc2ccccc2)SC)C=C(OC)C1=O" ; TGI = > 100 µM

----------
System: DMS 114 small cell lung
Assay: NCI tumour cell line growth inhibition, 48 h
MEASURED_ATTRIBUTE: TGI

For orientation, consider the following solved cases.
{"COMPOUND": "O=C(/C=C/c1c(O)ccc2ccccc12)c1ccccc1Cl", "MEASURED": "53.3 µM"}
{"COMPOUND": "C[C@]12Cc3cn[nH]c3C(=O)C1CC[C@@H]1C2CC[C@@]2(C)C1CC[C@]2(C)O (stereo partly drawn)", "MEASURED": "> 100 µM"}

Now let's try a different one.
Data point: CCOC(=O)C(Cc1ccc([N+](=O)[O-])cc1)NC(=O)CC1c2ccccc2-c2ccccc21 (stereo not drawn) ; TGI = > 100 µM

----------
Recorded measurements of TGI, one per entry
System: UACC-257 melanoma
Experiment: NCI tumour cell line growth inhibition, 48 h

{"COMPOUND": "CCc1nnc(CC)n1-n1c(Cc2ccccc2)n[nH]c1=O", "TGI": "> 100 µM"}
{"COMPOUND": "CC1CC(C)CN(S(=O)(=O)c2cc(Cl)c(Oc3ccc([N+](=O)[O-])cc3Cl)c(Cl)c2)C1 (configuration not stated)", "TGI": "> 100 µM"}
{"COMPOUND": "O=C(Nc1ccccc1Cl)c1cc(S(=O)(=O)Nc2n[nH]c(=O)n2-c2ccccc2)c(S)cc1Cl", "TGI": "> 100 µM"}
{"COMPOUND": "COc1ccc2nc3cccc([N+](=O)[O-])c3c(NCCN(C)C)c2c1", "TGI": "0.384 µM"}
{"COMPOUND": "N#Cc1ccc(Oc2nc3ccccc3nc2C(=O)O)cc1", "TGI": "> 100 µM"}

Now let's try a different one.
Data point: "O=C(CSc1nccc(=O)[nH]1)c1ccccc1" ; TGI = > 100 µM

----------
Test system: LOX IMVI melanoma
Test: NCI tumour cell line growth inhibition, 48 h
MEASURED_ATTRIBUTE: GI50

{"MOLECULE": "NCCCCCCn1c2c(c3ccccc3c1=O)C(=O)c1ccccc1-2", "MEASURED_ATTRIBUTE": "GI50", "MEASURED": "1.12 µM"}

With LOX IMVI melanoma as the test system, "Cc1ccc(-c2cc3c(NC(=O)C4CC4)ncnc3o2)cc1" showed GI50 of > 25 µM

With LOX IMVI melanoma as the test system, CN1C(=O)CC2(C)c3cc(O)ccc3N(C)C12 (stereo not drawn) showed GI50 of 14.8 µM

----------
System: NCI-H522 lung
Test: NCI tumour cell line growth inhibition, 48 h
Use yes (1) when the recorded TGI is no lower than 20 µM; use no (0) when it is lower.

The following compounds have reported results that may help.
{"COMPOUND": "CCOCc1cc(=O)c2c(O)cc3c(c2o1)CCC(C)(C)O3", "CATEGORY": "yes (1)"}
{"COMPOUND": "CC(C)=CCC/C(C)=C\\CC/C(C)=C/CO", "CATEGORY": "yes (1)"}
{"COMPOUND": "Cc1c(Cl)ccc2c1NC(=O)C2(O)CC(=O)c1ccc2ccccc2c1 (stereo not drawn)", "CATEGORY": "yes (1)"}

(Q) Would you say CC1(C)COC2(OC1)C1=NS(=O)(=O)CC13CCC2C3(C)C (stereo not drawn) shows TGI at minimum 20 µM?
(A) yes (1)

(Q) Would you say "CCCCCCCCCCCC(=O)c1c(O)cc(C)oc1=O" shows TGI at minimum 20 µM?
(A) yes (1)

----------
Recorded measurements of TGI, one per entry
Tested on: LOX IMVI melanoma
Assay: NCI tumour cell line growth inhibition, 48 h

{"COMPOUND": "Nc1cc(N)c2nc(-c3ccccc3)c(Sc3ccc(Cl)c(Cl)c3)nc2c1", "SUBJECT_OF_TEST": "LOX IMVI melanoma", "MEASURED_ATTRIBUTE": "TGI", "MEASURED": "24.5 µM"}
{"COMPOUND": "Cc1cc(C)c(C#N)c(SCC(=O)c2sc3c(C#N)c(C)cc(C)[n+]3c2[O-])n1", "SUBJECT_OF_TEST": "LOX IMVI melanoma", "MEASURED_ATTRIBUTE": "TGI", "MEASURED": "> 100 µM"}
{"COMPOUND": "O=C(O)c1c(-c2ccccc2)c(=O)[nH]c2ccccc12", "SUBJECT_OF_TEST": "LOX IMVI melanoma", "MEASURED_ATTRIBUTE": "TGI", "MEASURED": "> 100 µM"}

Now let's try a different one.
Data point: Oc1c(C(O)c2ccccn2)ccc2ccccc12 (centres undefined) ; TGI = > 100 µM

----------
Tested on: K-562 leukemia
Assay: NCI tumour cell line growth inhibition, 48 h
MEASURED_ATTRIBUTE: log10 of TGI (log10 of the value in µM)
Annotation: log10 of TGI, µM basis.

Data point: "Cc1ccccc1C1=C/C(=C(\SS/C(C(=O)c2ccc(OCC(=O)O)c(Cl)c2Cl)=C2\C=C(c3ccccc3C)SS2)C(=O)c2ccc(OCC(=O)O)c(Cl)c2Cl)SS1" ; log10 of TGI = 1.62

Data point: "CCCCCC(=O)N[C@H]1CCc2cc(OC)c(OC)c(OC)c2-c2ccc(SC)c(=O)cc21" ; log10 of TGI = 1.05

Data point: "CN1CCN(c2ccc(N3Cc4ccccc4OC4=C3C(=O)c3c(O)ccc(O)c3C4=O)cn2)CC1" ; log10 of TGI = 0.40

Data point: "CC(C)c1cccc(C(C)C)c1NC(=S)N=Nc1cc(C(C)(C)C)c(O)c(C(C)(C)C)c1" ; log10 of TGI = 1.90

Data point: "Brc1ccc2[nH]cc([C@H]3CN[C@@H](c4c[nH]c5ccc(Br)cc45)CN3)c2c1" ; log10 of TGI = 0.66

Data point: CCCCCc1cc2cc3c(c(O)c2c(=O)[nH]1)C1(CC3)C(O)=c2c(=O)c3c(=O)cc(OC)c(=O)c=3c(=O)c2=C1O (centres undefined) ; log10 of TGI = 0.36

Data point: "CS(=O)(=O)Nc1ccc(Nc2c3ccccc3nc3cc(N)ccc23)cc1" ; log10 of TGI = 1.38

Data point: "CC(C)(C)c1cc(Cc2ccc([N+](C)(C)C)cc2)c(O)c(C(C)(C)C)c1" ; log10 of TGI = 1.45

----------
Tested on: MDA-MB-435
Experiment: NCI tumour cell line growth inhibition, 48 h
MEASURED_ATTRIBUTE: TGI

For orientation, consider the following solved cases.
{"COMPOUND": "O=c1n(N=S(=O)(c2ccccc2)c2ccccc2)c(=O)n2n1C1C=CC2CC1", "TGI": "> 100 µM"}
{"COMPOUND": "COC(=O)C(CCC1C=CN(S(=O)(=O)c2ccc(C)cc2)C1)N=Cc1ccccc1 (stereo not given)", "TGI": "> 100 µM"}
{"COMPOUND": "COc1ccc(N2C(=O)C3c4[nH]c5ccc(C)cc5c4C4CCC(c5ccccc5)CC4C3C2=O)cc1 (stereo not given)", "TGI": "> 100 µM"}

Data point: O=C1c2ccccc2C2=Cc3ccccc3C(O)N12 (stereo not given) ; TGI = > 100 µM

Data point: "CCC1=C(C)c2cc3[n-]c(cc4nc(c(C=O)c5[n-]c(cc1n2)c(C)c5CC)C(C)=C4CC)c(C)c3CC.[Ni+2]" ; TGI = > 100 µM

----------
Recorded measurements of TGI, one per entry
Tested on: EKVX NSCLC
Assay: NCI tumour cell line growth inhibition, 48 h

Data point: CCOC(=O)C1N(S(=O)(=O)c2ccc(C)cc2)CCC12c1ccccc1NC2c1ccc(OC)c(OC)c1 (stereo not drawn) ; TGI = > 100 µM

Data point: CCOc1ccc(NC(=O)C(=O)C2C(=O)Nc3ccccc3S2=O)cc1 (stereo not drawn) ; TGI = > 100 µM

Data point: "C[N+](C)(C)CC(=O)N/N=C(/Cc1nc2ccc(Cl)cc2[nH]c1=O)C1=NS(=O)(=O)c2cc(S(N)(=O)=O)c(Cl)cc2N1" ; TGI = > 100 µM
